Procedure text: Cmax in Sprague-Dawley rat at 20 mg/kg, po measured upto 24 hrs by LC/MS/MS analysis
Assay type: ADME, organism-based
Parameters: route oral, dose 20 mg/kg, time <=24
Experimental parameters: in vivo
Recorded endpoint: Cmax (nM)

P: Nc1ncc(-c2cc3ccccc3o2)c(N2CCC3(CCNC3=O)CC2)c1Cl
Q: Nc1ncc(-c2cc3ccccc3s2)c(N2CCC3(CCNC3=O)CC2)c1Cl
In: Could you kindly indicate whether P or Q has the higher Cmax value? Pick one; state its label.
Out: P
(P: 3200 nM, Q: 1350 nM)

* * *

Procedure text: AUC in BALB/c mouse at 10 mg/kg, po measured upto 24 hrs by LC/MS/MS analysis
Type: ADME, organism-based
Set-up: route oral, dose 10 mg/kg, time <=24
Experimental parameters: in vivo
Recorded endpoint: AUC at 24 h (µM·h)

{"columns": ["Sample smiles", "Endpoint result"],
 "data": [
  ["Nc1ncc(-c2cc3ccccc3s2)c(N2CCC3(CCNC3=O)CC2)c1Cl", 3.4],
  ["Nc1ncc(-c2cc3ccccc3o2)c(N2CCC3(CCNC3=O)CC2)c1Cl", 2.56]
]}

* * *

Tested on: CDK8/Cyclin C (Homo sapiens, UniProt P49336)
Sequence (P49336 whole entry): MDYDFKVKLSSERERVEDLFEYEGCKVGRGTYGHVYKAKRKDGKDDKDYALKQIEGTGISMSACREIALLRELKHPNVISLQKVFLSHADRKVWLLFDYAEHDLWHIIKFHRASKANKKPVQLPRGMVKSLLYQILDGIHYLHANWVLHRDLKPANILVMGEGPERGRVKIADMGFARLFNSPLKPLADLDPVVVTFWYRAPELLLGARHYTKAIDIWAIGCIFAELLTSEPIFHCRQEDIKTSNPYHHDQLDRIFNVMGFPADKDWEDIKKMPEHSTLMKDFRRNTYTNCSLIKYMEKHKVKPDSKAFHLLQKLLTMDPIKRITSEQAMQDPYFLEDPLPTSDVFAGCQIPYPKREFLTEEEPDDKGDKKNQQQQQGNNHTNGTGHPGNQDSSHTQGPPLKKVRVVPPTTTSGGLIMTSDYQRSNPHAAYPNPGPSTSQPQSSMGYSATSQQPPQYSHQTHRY
Sequence (P24863 whole entry, further chain): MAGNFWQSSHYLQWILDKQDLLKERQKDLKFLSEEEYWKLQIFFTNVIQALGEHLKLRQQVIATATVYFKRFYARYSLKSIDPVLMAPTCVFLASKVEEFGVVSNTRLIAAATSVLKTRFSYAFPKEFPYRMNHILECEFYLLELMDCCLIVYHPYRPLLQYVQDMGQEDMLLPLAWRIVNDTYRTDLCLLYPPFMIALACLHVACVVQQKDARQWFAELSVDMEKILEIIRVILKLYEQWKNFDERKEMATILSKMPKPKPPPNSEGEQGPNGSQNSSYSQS
Procedure text: Inhibition of CDK8/Cyclin C (unknown origin) using RBER-CHKtide as substrate in presence of [33P]gammaATP incubated for 60 mins by microplate scintillation counter analysis
Recorded endpoint: Ki (nM)

{"columns": ["Sample smiles", "Ki (nM)"],
 "data": [
  ["Cc1csc(-c2cncc(Cl)c2N2CCC3(CCNC3=O)CC2)c1", 10],
  ["O=C1NCCC12CCN(c1c(Cl)cncc1-c1cn[nH]c1)CC2", 254],
  ["Cc1ccc(-c2cncc(Cl)c2N2CCC3(CCNC3=O)CC2)s1", 10],
  ["CC(C)(C)OC(=O)N1CCN(Cc2ccc(-c3cncc(Cl)c3N3CCC4(CCNC4=O)CC3)s2)CC1", 46],
  ["CCOCOCc1ccc(-c2cncc(Cl)c2N2CCC3(CCNC3=O)CC2)o1", 36],
  ["O=C1NCCC12CCN(c1c(Cl)cncc1-c1cc[nH]c1)CC2", 14]
]}

I: Cn1cc(-c2cncc(Cl)c2N2CCC3(CCNC3=O)CC2)cn1
II: O=Cc1ccc(-c2cncc(Cl)c2N2CCC3(CCNC3=O)CC2)o1
III: O=C1NCCC12CCN(c1c(Cl)cncc1-c1cccs1)CC2
IV: O=Cc1cc(-c2cncc(Cl)c2N2CCC3(CCNC3=O)CC2)cs1
V: Cc1ccc(-c2cncc(Cl)c2N2CCC3(CCNC3=O)CC2)o1
In: Output the entries ranked by Ki from maximum down to minimum. List the labels, following the order given in the request.
Out: I, II, IV, V, III
(I: 230 nM, II: 82 nM, IV: 52 nM, V: 22 nM, III: 10 nM)

1: Cc1cc(-c2cncc(Cl)c2N2CCC3(CCNC3=O)CC2)sc1C=O
2: CC(=O)c1sccc1-c1cncc(Cl)c1N1CCC2(CCNC2=O)CC1
3: O=Cc1sccc1-c1cncc(Cl)c1N1CCC2(CCNC2=O)CC1
In: Let's sort these by Ki, smallest first. Go ahead? Dear reader, please state the labels in the requested order.
Out: 1, 3, 2
(1: 119 nM, 3: 1750 nM, 2: 4660 nM)

P: CC(=O)c1ccc(-c2cncc(Cl)c2N2CCC3(CCNC3=O)CC2)s1
Q: Nc1ncc(-c2cc3ccccc3o2)c(N2CCC3(CCNC3=O)CC2)c1Cl
In: In terms of reported Ki, does P or Q have the smaller number? Answer format: the label of the selected item.
Out: Q

1: O=C1NCCC12CCN(c1c(Cl)cncc1-c1ccco1)CC2
2: O=Cc1cc(-c2cncc(Cl)c2N2CCC3(CCNC3=O)CC2)co1
In: Endpoint returns the identifier whose Ki is numerically larger, either 1 or 2 . # respond with the chosen item's label
Out: 2
(2: 185 nM, 1: 26 nM)

1: O=Cc1cscc1-c1cncc(Cl)c1N1CCC2(CCNC2=O)CC1
2: O=C1NCCC12CCN(c1c(Cl)cncc1-c1ccc(-c3ccccc3)s1)CC2
3: O=C1NCCC12CCN(c1c(Cl)cncc1-c1ccoc1)CC2
In: Place the items in sequence of falling Ki. Put the labels in the order asked and list them.
Out: 1, 3, 2
(1: 845 nM, 3: 42 nM, 2: 5 nM)

1: Cc1ccsc1-c1cncc(Cl)c1N1CCC2(CCNC2=O)CC1
2: Cn1cccc1-c1cncc(Cl)c1N1CCC2(CCNC2=O)CC1
In: Select one: 1 or 2 . Criterion: greater recorded Ki. Label of pick, please.
Out: 2
(2: 30 nM, 1: 8 nM)

* * *

Procedure text: Half life in BALB/c mouse at 10 mg/kg, po measured upto 24 hrs by LC/MS/MS analysis
Format: ADME, organism-based
Experimental parameters: in vivo
Recorded endpoint: half-life (h)

1: Nc1ncc(-c2cc3ccccc3s2)c(N2CCC3(CCNC3=O)CC2)c1Cl
2: Nc1ncc(-c2cc3ccccc3o2)c(N2CCC3(CCNC3=O)CC2)c1Cl
In: Between the two listed entries 1 and 2 , which has its half-life at the higher number? Your answer should be the label attached to the chosen record.
Out: 2
(2: 3.44 h, 1: 1.67 h)

* * *

Procedure text: Half life in Sprague-Dawley rat at 20 mg/kg, po measured upto 24 hrs by LC/MS/MS analysis
Type: ADME, organism-based
Experimental parameters: in vivo
Recorded endpoint: half-life (h)

I: Nc1ncc(-c2cc3ccccc3o2)c(N2CCC3(CCNC3=O)CC2)c1Cl
II: Nc1ncc(-c2cc3ccccc3s2)c(N2CCC3(CCNC3=O)CC2)c1Cl
In: Between I and II , which one shows the smaller half-life number? Bench note: the answer is the label of the chosen record.
Out: I

* * *

Procedure text: Tmax in Sprague-Dawley rat at 5 mg/kg, iv measured upto 24 hrs by LC/MS/MS analysis
Format: ADME, organism-based
Experimental parameters: in vivo
Recorded endpoint: Tmax (min)

1: Nc1ncc(-c2cc3ccccc3s2)c(N2CCC3(CCNC3=O)CC2)c1Cl
2: Nc1ncc(-c2cc3ccccc3o2)c(N2CCC3(CCNC3=O)CC2)c1Cl
In: Which value of Tmax is greater, the one for 1 or the one for 2 ? Indicate your choice by writing its label.
Out: 1

* * *

Procedure text: Cmax in BALB/c mouse at 10 mg/kg, po measured upto 24 hrs by LC/MS/MS analysis
Assay type: ADME, organism-based
Parameters: route oral, dose 10 mg/kg, time <=24
Experimental parameters: in vivo
Recorded endpoint: Cmax (nM)

{"columns": ["Sample smiles", "Unit abbreviation", "Endpoint result"],
 "data": [
  ["Nc1ncc(-c2cc3ccccc3s2)c(N2CCC3(CCNC3=O)CC2)c1Cl", "nM", 1680],
  ["Nc1ncc(-c2cc3ccccc3o2)c(N2CCC3(CCNC3=O)CC2)c1Cl", "nM", 2230]
]}

* * *

Procedure text: Tmax in BALB/c mouse at 10 mg/kg, po measured upto 24 hrs by LC/MS/MS analysis
Assay type: ADME, organism-based
Experimental parameters: in vivo
Recorded endpoint: Tmax (min)

a: Nc1ncc(-c2cc3ccccc3o2)c(N2CCC3(CCNC3=O)CC2)c1Cl
b: Nc1ncc(-c2cc3ccccc3s2)c(N2CCC3(CCNC3=O)CC2)c1Cl
In: Compare a and b and name the one whose reported Tmax is smaller. Respond with the label that goes with your answer.
Out: b

* * *

Procedure text: Volume of distribution at steady state in BALB/c mouse at 2 mg/kg, iv measured upto 24 hrs by LC/MS/MS analysis
Assay type: ADME, organism-based
Experimental parameters: in vivo, read-out: Vdss
Recorded endpoint: Vd (L/kg)

{"columns": ["Sample smiles", "Unit abbreviation", "Vd"],
 "data": [
  ["Nc1ncc(-c2cc3ccccc3s2)c(N2CCC3(CCNC3=O)CC2)c1Cl", "L/kg", 1.6],
  ["Nc1ncc(-c2cc3ccccc3o2)c(N2CCC3(CCNC3=O)CC2)c1Cl", "L/kg", 1.24]
]}

* * *

Procedure text: Half life in Sprague-Dawley rat at 5 mg/kg, iv measured upto 24 hrs by LC/MS/MS analysis
Type: ADME, organism-based
Experimental parameters: in vivo
Recorded endpoint: half-life (h)

a: Nc1ncc(-c2cc3ccccc3o2)c(N2CCC3(CCNC3=O)CC2)c1Cl
b: Nc1ncc(-c2cc3ccccc3s2)c(N2CCC3(CCNC3=O)CC2)c1Cl
In: Parameter check: reported half-life is higher for which label, a or b ? Write down the label of the entry you select.
Out: b

* * *

Tested on: UniProt P36888
Sequence (P36888 whole entry): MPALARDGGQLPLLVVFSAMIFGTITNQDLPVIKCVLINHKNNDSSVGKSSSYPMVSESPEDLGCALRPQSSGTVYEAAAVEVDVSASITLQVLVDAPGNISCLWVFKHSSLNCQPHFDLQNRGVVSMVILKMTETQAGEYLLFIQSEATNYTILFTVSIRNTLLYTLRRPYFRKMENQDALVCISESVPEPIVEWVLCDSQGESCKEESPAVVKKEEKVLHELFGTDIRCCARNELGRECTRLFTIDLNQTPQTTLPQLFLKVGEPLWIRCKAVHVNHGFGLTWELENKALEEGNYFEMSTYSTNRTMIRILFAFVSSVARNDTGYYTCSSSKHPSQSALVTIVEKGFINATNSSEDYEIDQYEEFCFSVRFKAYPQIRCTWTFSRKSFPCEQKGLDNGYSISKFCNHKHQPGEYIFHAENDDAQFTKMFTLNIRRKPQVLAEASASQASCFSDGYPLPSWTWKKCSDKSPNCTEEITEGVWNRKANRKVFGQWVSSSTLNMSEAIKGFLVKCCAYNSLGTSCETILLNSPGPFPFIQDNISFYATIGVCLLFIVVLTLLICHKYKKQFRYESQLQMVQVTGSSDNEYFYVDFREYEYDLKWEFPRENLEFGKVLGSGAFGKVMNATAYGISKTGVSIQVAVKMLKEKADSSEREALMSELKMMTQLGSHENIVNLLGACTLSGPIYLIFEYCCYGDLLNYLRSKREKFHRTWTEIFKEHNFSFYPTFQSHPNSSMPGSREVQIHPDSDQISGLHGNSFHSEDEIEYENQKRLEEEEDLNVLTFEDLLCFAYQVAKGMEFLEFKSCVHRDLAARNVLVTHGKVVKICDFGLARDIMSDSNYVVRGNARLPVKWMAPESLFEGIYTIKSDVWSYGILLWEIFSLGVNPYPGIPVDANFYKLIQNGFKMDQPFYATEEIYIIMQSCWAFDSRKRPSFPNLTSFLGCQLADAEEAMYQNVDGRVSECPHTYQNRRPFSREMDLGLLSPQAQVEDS
Recorded endpoint: Ki (µM)
Use µM as the unit, but write only the number.

In: Please indicate Ki recorded for Nc1ncc(-c2cc3ccccc3o2)c(N2CCC3(CCNC3=O)CC2)c1Cl
Out: 0.242
